Target: full-length recombinant human FYN A (Homo sapiens (Human), UniProt P06241)
Sequence (P06241 whole entry): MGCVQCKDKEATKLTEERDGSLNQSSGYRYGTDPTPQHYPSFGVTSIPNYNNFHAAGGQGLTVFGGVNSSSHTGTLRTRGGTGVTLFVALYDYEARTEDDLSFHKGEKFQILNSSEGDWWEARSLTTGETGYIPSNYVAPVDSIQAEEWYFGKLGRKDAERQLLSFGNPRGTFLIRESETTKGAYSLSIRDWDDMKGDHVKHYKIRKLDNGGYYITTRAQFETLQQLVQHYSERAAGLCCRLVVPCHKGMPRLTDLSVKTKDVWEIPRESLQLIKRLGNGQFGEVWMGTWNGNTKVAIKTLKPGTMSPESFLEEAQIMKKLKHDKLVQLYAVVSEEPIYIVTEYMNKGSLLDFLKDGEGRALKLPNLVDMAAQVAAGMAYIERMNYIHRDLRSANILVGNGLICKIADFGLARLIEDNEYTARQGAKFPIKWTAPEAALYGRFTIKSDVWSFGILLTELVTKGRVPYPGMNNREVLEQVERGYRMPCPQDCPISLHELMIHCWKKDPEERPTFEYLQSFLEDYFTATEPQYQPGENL
Test: ADP-Glo Kinase Assay of FYN kinase inhibition
Type: biochemical
Details: primary screen, initial compounds
QUANTITY MEASURED: pIC50
Convention used: pIC50 is expressed as -log10 of the molar concentration.

Q: // query pIC50 value for entry COc1cc(-c2cc(-c3ccccc3Oc3ccccc3)cnc2N)cc(OC)c1OC [382_0087_0063]
A: 5.05

Q: Further, for COc1ccc(-c2cnc(N)c(-c3cc(OC)c(OC)c(OC)c3)c2)cn1 [382_0087_0311] ?
A: 5.97

Q: Further, for COc1ccc(-c2cc(=O)c3cc(O)ccc3o2)cc1OC [Compound 300] ?
A: 5.05

Q: Further, for CNc1ccc2ncc(-c3cnn(C)c3)n2n1 [Compound 437_7468] ?
A: 5.25

Q: Further, for CCCNc1ccc2ncc(-c3cccc(OC)c3)n2n1 [229_0226_4140] ?
A: 5.65

Q: Further, for CC(=O)Nc1cccc(-c2cnc3ccc(-c4cccc(C(C)=O)c4)nn23)c1 [Compound 354] ?
A: 6.33

Q: Further, for COc1ccc(-c2cnc3ccc(-c4cccs4)nn23)cc1OC [Compound 441] ?
A: 6.67

Q: Further, for CN1CCN(c2ccc(Nc3cc4c(cn3)cc(-c3cccc(C(F)(F)F)c3)n4C)cc2)CC1 [Compound 590] ?
A: 4.52

Q: Further, for CC(C)CNc1nn2c(-c3cccc(C(N)=O)c3)cnc2s1 [Compound 569] ?
A: 5.95

Q: Further, for COc1cc(-c2cc(-c3cc(OC)c(OC)c(OC)c3)cnc2N)ccc1O [382_0314_0087] ?
A: 7.09

Q: Further, for O=C(O)/C=C/c1cccc(-c2cnn3ccc(NCc4cccnc4)nc23)c1 [Compound 539] ?
A: 5.64

Q: Further, for O=C(NCCO)c1ccc(-c2cn3c(-c4ccc(Oc5ccccc5)cc4)cnc3cn2)cc1 [Compound 219] ?
A: 6.21

Q: Further, for COc1ccc(-c2cnc3ccc(NCc4cccc(Cl)c4)nn23)cc1 [229_0223_0280] ?
A: 4.97

Q: Further, for COc1ccc(-c2cnc3ccc(-c4cccc(NS(C)(=O)=O)c4)nn23)cc1OC [Compound 379] ?
A: 6.15

Q: Further, for COc1cc(-c2cnc3sc(NCC4CCOCC4)nn23)ccc1O [Compound 543] ?
A: 5.66

Q: Further, for COc1ccc(-c2cnc3ccc(-c4cccc(C(=O)NCCO)c4)nn23)cc1OC [Compound 389] ?
A: 6.44

Q: Further, for COc1cccc(-c2ccnc3[nH]nc(C4CCNCC4)c23)c1 [Compound 520] ?
A: 4.75

Q: Further, for CNc1ccc2ncc(-c3ccsc3)n2n1 [Compound 437_0074] ?
A: 5.37

Q: Further, for CN(C)CCCNC(=O)c1ccc(-c2cn3c(-c4ccsc4)cnc3cn2)cc1 [Compound 222] ?
A: 5.41

Q: Further, for Cn1cc(-c2ccc3ncc(-c4cccs4)n3n2)cn1 [Compound 388] ?
A: 5.88

Q: Further, for Cn1cc(-c2cn3c(-c4ccsc4)cnc3cn2)cn1 [388_0074_8400] ?
A: 5.20

Q: Further, for CC(=O)c1cccc(-c2cnc3ccc(-c4cccnc4)nn23)c1 [Compound 427] ?
A: 5.91

Q: Further, for Oc1ccc(-c2cnc3cnc(-c4ccc(NCCN5CCOCC5)nc4)cn23)cc1 [Compound 249] ?
A: 5.88

Q: Further, for COc1ccc(Nc2cc3[nH]c(-c4cn[nH]c4)cc3cn2)cc1OC [Compound 310] ?
A: 4.90

Q: Further, for CN(C)C(=O)c1cccc(-c2cnc3sc(NC4CCCCC4)nn23)c1 [Compound 251] ?
A: 6.14

Q: Further, for O=C(NC1CC1)c1ccc(-c2cn3c(-c4ccc(O)cc4)cnc3cn2)cc1 [388_0080_7489] ?
A: 5.71

Q: Further, for CC(=O)Nc1cccc(-c2cnc3ccc(-c4ccc(C(N)=O)cc4)nn23)c1 [Compound 282] ?
A: 6.65

Q: Further, for NC(=O)c1ccc(-c2ccnc3[nH]nc(-c4cccc(F)c4)c23)cc1 [Compound 509] ?
A: 5.69

Q: Further, for CC(=O)c1cccc(-c2cnc3ccc(-c4cccc(C(N)=O)c4)nn23)c1 [Compound 380] ?
A: 6.28

Q: Further, for Cn1cc(-c2cn3c(-c4ccc(O)cc4)cnc3cn2)cn1 [Compound 215] ?
A: 5.80

Where do the numbers come from? From patent US10688093B2.
